Provenance of the data: patent US20240109912A1

# MEASURED_ON: CDK7/cyclinH/MAT1 trimeric complex (Homo sapiens (Human))
# ASSAY_SUMMARY: In vitro CDK7 assay, potency of irreversible covalent inhibitors (kinact/KI)
# CONDITION_NOTES: read-out: CDK7 (20 nM enz.) (kinact/ KI, M^−1*s^−1), 20 nM enz.
Rule: kinact/KI of 50 M⁻¹ s⁻¹ or more gives class 1; anything lower gives class 0.

>  <COMPOUND>
C=CC(=O)N1CC(N2CCC(c3cc(C)c4c(c3)Nc3ncnc(-c5cncc(OCC)c5)c3CO4)CC2)C1

>  <ASSIGNED_CATEGORY>
class 0

$$$$
>  <COMPOUND>
CC#CC(=O)N1CCN(C2CCN(c3cc(C)c4c(c3)Nc3ncnc(N5CCS(=O)(=O)CC5)c3CO4)CC2)CC1

>  <ASSIGNED_CATEGORY>
class 1

$$$$
>  <COMPOUND>
C=CC(=O)N1CC[C@H](N2CCC(c3cc(F)c4c(c3)Nc3ncnc(N5CCOCC5)c3CO4)CC2)C1 (single isomer, unassigned)

>  <ASSIGNED_CATEGORY>
class 1

$$$$
>  <COMPOUND>
C=CC(=O)N1CCC(N2CC[C@@H](c3cc(C)c4c(c3)Nc3ncnc(N5CCOCC5)c3CO4)C2)CC1

>  <ASSIGNED_CATEGORY>
class 1

$$$$
>  <COMPOUND>
C=CC(=O)N1CC(N2CCC(c3cc(F)c4c(c3)Nc3ncnc(N5CCOCC5)c3[C@@H](C)O4)CC2)C1 (single isomer, unassigned)

>  <ASSIGNED_CATEGORY>
class 1

$$$$
>  <COMPOUND>
C=CC(=O)N1CC[C@@H](N2CC(c3cc4c(c(C5CC5)c3)O[C@H](C)c3c(ncnc3N3CCS(=O)(=O)CC3)N4)C2)C1 (single isomer, unassigned)

>  <ASSIGNED_CATEGORY>
class 1

$$$$

---

# MEASURED_ON: CDK7/cyclinH/MAT1 trimeric complex (Homo sapiens (Human), UniProt P50613)
# Sequence (P50613 whole entry): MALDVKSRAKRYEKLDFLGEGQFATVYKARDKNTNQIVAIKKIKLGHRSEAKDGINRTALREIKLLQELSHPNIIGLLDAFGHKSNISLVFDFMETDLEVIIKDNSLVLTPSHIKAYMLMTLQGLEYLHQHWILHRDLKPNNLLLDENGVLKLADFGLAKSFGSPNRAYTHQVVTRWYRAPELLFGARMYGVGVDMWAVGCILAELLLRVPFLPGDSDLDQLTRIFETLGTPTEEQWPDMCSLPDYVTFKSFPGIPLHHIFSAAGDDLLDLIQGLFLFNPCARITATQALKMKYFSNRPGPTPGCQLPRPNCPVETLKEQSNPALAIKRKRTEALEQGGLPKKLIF
# Sequence (P51946 whole entry partner): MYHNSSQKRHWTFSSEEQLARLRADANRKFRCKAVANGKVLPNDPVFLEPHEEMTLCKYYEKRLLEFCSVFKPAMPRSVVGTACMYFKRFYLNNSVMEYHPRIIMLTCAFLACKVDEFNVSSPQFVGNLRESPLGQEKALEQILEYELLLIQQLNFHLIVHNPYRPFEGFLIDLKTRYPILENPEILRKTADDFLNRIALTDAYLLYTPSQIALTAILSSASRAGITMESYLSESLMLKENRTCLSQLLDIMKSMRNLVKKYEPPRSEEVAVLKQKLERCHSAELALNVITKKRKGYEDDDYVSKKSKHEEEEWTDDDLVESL
# Sequence (P51948 whole entry partner): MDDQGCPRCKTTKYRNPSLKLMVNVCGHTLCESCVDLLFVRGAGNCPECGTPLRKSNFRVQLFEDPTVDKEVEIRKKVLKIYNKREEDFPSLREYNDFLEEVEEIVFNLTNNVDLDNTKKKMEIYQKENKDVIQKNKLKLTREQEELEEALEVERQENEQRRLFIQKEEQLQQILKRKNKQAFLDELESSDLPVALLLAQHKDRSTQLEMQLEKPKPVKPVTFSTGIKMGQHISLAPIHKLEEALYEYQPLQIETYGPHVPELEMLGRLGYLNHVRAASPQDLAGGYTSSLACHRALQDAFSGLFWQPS
# ASSAY_SUMMARY: In vitro CDK7 assay, potency of irreversible covalent inhibitors (kinact/KI)
# CONDITION_NOTES: read-out: CDK7 (kinact/KI, M^−1*s^−1), Table B
Each entry below lists one item and its recorded kinact/KI value.

>  <COMPOUND>
C=CC(=O)N1CC(N2CCC(c3ccc4c(c3)Nc3ncnc(C5CCOCC5)c3CO4)CC2)C1 [compound 38]

>  <kinact/KI / M⁻¹ s⁻¹>
386

$$$$
>  <COMPOUND>
C=CC(=O)N1CC(C2CCN(c3ccc4c(c3)Nc3ncnc(N5CCOCC5)c3CO4)CC2)C1 [compound 7]

>  <kinact/KI / M⁻¹ s⁻¹>
99.5

$$$$
>  <COMPOUND>
C=CC(=O)NCCN1CCC(c2ccc3c(c2)Nc2ncnc(N4CCOCC4)c2CO3)CC1 [compound 3]

>  <kinact/KI / M⁻¹ s⁻¹>
161

$$$$
>  <COMPOUND>
C=CC(=O)N1CC(N2CCC(c3ccc4c(c3)Nc3ncnc(-c5ccc(=O)n(C)c5)c3CO4)CC2)C1 [compound 8]

>  <kinact/KI / M⁻¹ s⁻¹>
749

$$$$
>  <COMPOUND>
C=CC(=O)N1CC(N2CCN(c3ccc4c(c3)Nc3ncnc(N5CCOCC5)c3CO4)CC2)C1 [compound 6]

>  <kinact/KI / M⁻¹ s⁻¹>
185

$$$$
>  <COMPOUND>
C=CC(=O)N1CCC(N2CCC(c3ccc4c(c3)Nc3ncnc(N5CCOCC5)c3CO4)CC2)CC1 [compound 2]

>  <kinact/KI / M⁻¹ s⁻¹>
543

$$$$
>  <COMPOUND>
C=CC(=O)N1CC(N2CC[C@H](c3ccc4c(c3)Nc3ncnc(N5CCOCC5)c3CO4)C2)C1 (single isomer, unassigned) [compound 9]

>  <kinact/KI / M⁻¹ s⁻¹>
306

$$$$
>  <COMPOUND>
C=CC(=O)N1CC(N2CCCC(c3ccc4c(c3)Nc3ncnc(N5CCOCC5)c3CO4)C2)C1 (stereo not drawn) [compound 35]

>  <kinact/KI / M⁻¹ s⁻¹>
41.8

$$$$
>  <COMPOUND>
C=CC(=O)N1CC(N2CC[C@@H](c3ccc4c(c3)Nc3ncnc(N5CCOCC5)c3CO4)[C@@H](C)C2)C1 [compound 36]

>  <kinact/KI / M⁻¹ s⁻¹>
1020

$$$$

---

Test system RNA polymerase II Serine 5 phosphorylation (CDK7) in A549 cells, IC50 listed for each of the compounds.

>  <COMPOUND>
C=CC(=O)N1CCC(N2CCC(c3ccc4c(c3)Nc3ncnc(N5CCOCC5)c3CO4)CC2)C(F)C1 (stereo not drawn) [compound 15]

>  <MEASURED_ON>
RNA polymerase II Serine 5 phosphorylation (CDK7) in A549 cells

>  <IC50>
0.955 µM

$$$$
>  <COMPOUND>
C=CC(=O)N1CC(N2CCC(c3ccc4c(c3)Nc3ncnc(N5CCOCC5)c3[C@@H](CC)O4)CC2)C1 (single isomer, unassigned) [compound 76]

>  <MEASURED_ON>
RNA polymerase II Serine 5 phosphorylation (CDK7) in A549 cells

>  <IC50>
1.66 µM

$$$$
>  <COMPOUND>
[2H][C@]1(N2CC(c3cc(C)c4c(c3)Nc3ncnc(N5CCS(=O)(=O)CC5)c3[C@@H](C)O4)C2)CCN(C(=O)C#CC)C1 (single isomer, unassigned) [compound 159]

>  <MEASURED_ON>
RNA polymerase II Serine 5 phosphorylation (CDK7) in A549 cells

>  <IC50>
0.178 µM

$$$$

---

# MEASURED_ON: CDK7/cyclinH/MAT1 trimeric complex (Homo sapiens (Human), UniProt P50613)
# ASSAY_SUMMARY: In vitro CDK7 assay, potency of irreversible covalent inhibitors (kinact/KI)
# CONDITION_NOTES: read-out: CDK7 (20 nM enz.) (kinact/ KI, M^−1*s^−1), 20 nM enz.

>  <COMPOUND>
C=CC(=O)N1CC(N2CCC(c3cc(C)c4c(c3)Nc3ncnc(N5CCS(=O)(=O)CC5)c3[C@H](C)O4)CC2)C1 [compound 32]

>  <kinact/KI>
1660 M⁻¹ s⁻¹

$$$$
>  <COMPOUND>
C=CC(=O)N1CCC(N2CC(c3cc4c(c(C5CC5)c3)O[C@@H](C)c3c(ncnc3N3CCS(=O)(=O)CC3)N4)C2)C1 (mixture of isomers) [compound 97]

>  <kinact/KI>
4030 M⁻¹ s⁻¹

$$$$
>  <COMPOUND>
C=CC(=O)N1CC(N2CC[C@@H](c3cc(C)c4c(c3)Nc3ncnc(N5CCOCC5)c3CO4)C2)C1 [compound 22]

>  <kinact/KI>
307 M⁻¹ s⁻¹

$$$$
>  <COMPOUND>
C=CC(=O)N1CCC(N2CC(c3cc(F)c4c(c3)Nc3ncnc(N5CCOCC5)c3[C@@H](C)O4)C2)CC1 [compound 27]

>  <kinact/KI>
9.39 M⁻¹ s⁻¹

$$$$
>  <COMPOUND>
C=CC(=O)N1CCC(N2CCC(c3cc4c(c(C)n3)OCc3c(ncnc3N3CCS(=O)(=O)CC3)N4)CC2)CC1 [compound 59]

>  <kinact/KI>
708 M⁻¹ s⁻¹

$$$$
>  <COMPOUND>
C=CC(=O)N1CC(N2CC(c3cc(C)c4c(c3)Nc3ncnc(N5CCOCC5)c3C(C)O4)C2)C1 (stereo not shown) [compound 103]

>  <kinact/KI>
159 M⁻¹ s⁻¹

$$$$
>  <COMPOUND>
C=CC(=O)N1CC[C@@H](N2CCC(c3cc(C)c4c(c3)Nc3ncnc(N5CCS(=O)(=O)CC5)c3CO4)CC2)C1 (single isomer, unassigned) [compound 114]

>  <kinact/KI>
1620 M⁻¹ s⁻¹

$$$$
>  <COMPOUND>
C=CC(=O)N1CC(N2CCC(c3cc(C)c4c(c3)Nc3ncnc(N5CC(CO)C5)c3CO4)CC2)C1 [compound 107]

>  <kinact/KI>
54.3 M⁻¹ s⁻¹

$$$$
>  <COMPOUND>
C=CC(=O)N1CCC(N2CC(c3cc4c(c(C)n3)OCc3c(ncnc3N3CCS(=O)(=O)CC3)N4)C2)C1 (stereo not shown) [compound 77]

>  <kinact/KI>
223 M⁻¹ s⁻¹

$$$$
>  <COMPOUND>
C=CC(=O)N1CC(N2CCC(c3cc(C)c4c(c3)Nc3ncnc(N5CCC(S(C)(=O)=O)C5)c3CO4)CC2)C1 (stereo not shown) [compound 65]

>  <kinact/KI>
24.3 M⁻¹ s⁻¹

$$$$
>  <COMPOUND>
C=CC(=O)N1CC(N2CCC(c3ccc4c(c3)Nc3ncnc(N5CCOCC5)c3[C@@H](C)O4)CC2)C1 (single isomer, unassigned) [compound 56]

>  <kinact/KI>
20.2 M⁻¹ s⁻¹

$$$$
>  <COMPOUND>
C=CC(=O)N1CCC(N2CC(c3cc(F)c4c(c3)Nc3ncnc(N5CCOCC5)c3[C@H](C)O4)C2)CC1 [compound 26]

>  <kinact/KI>
203 M⁻¹ s⁻¹

$$$$
>  <COMPOUND>
CC#CC(=O)N1CC(N2CCC(c3cc(C)c4c(c3)Nc3ncnc(N5CCOC6(COC6)C5)c3CO4)CC2)C1 [compound 195]

>  <kinact/KI>
485 M⁻¹ s⁻¹

$$$$
